Origin of measurements: PubChem BioAssay (NCI)

# Tested on: SN12C renal
# Method Notes: NCI-60 one-dose screen, 48 h
# Test Context: 10 µM unless noted
About 83,000 compounds went through this panel and 20% of them were active in at least one assay; those are over-represented in the sample as a whole. Calls of active or inactive are those of the source. The calls were made as follows: active = growth percent below 10; inactive = the rest.
The reply should be one of these categories: yes (1) (active), no (0) (inactive)

Observe how each entry below is paired with its result.
Cc1nc2sccn2c1-c1cn2ccsc2n1
no (0)
CC(=O)[C@@H]1CC[C@]2(C(N)=O)CC[C@]3(C)[C@H](CC[C@@H]4[C@@]5(C)CCCNC(C)(C)[C@@H]5CC[C@]43C)[C@@H]12
no (0)
CCc1c(Cl)nc(N)nc1Nc1ccc(C)c(C)c1
no (0)
CC(C)(C)c1cc(/C=N/NC(=O)c2ccccc2NC(=O)c2cccs2)c(O)c(C(C)(C)C)c1
no (0)
O=C1c2cccc3c(-c4ccc5c(c4)ncn5C4CCCCC4)ccc(c23)C(=O)N1CCO
no (0)
COc1cc2cc(Oc3cccc(NC(=O)Nc4cc(C(F)(F)F)cc(C(F)(F)F)c4)c3)c(C)nc2cc1OC
yes (1)
CCOC(=O)Nc1ccc(-c2ccc3c(c2)NC(=O)/C3=C\c2ccc[nH]2)cc1
no (0)
CNCCn1c(=O)c2cc(OC)c(OC)cc2c2ccc3cc4c(cc3c21)OCO4
yes (1)

Request: Kindly provide the recorded test outcome for the following compound: Cc1ccc(C(=O)/C(=C\c2ccc([N+](=O)[O-])cc2)S(=O)Cc2ccc(Cl)cc2)cc1 (centres undefined)
Response: yes (1)

Request: Kindly provide the recorded test outcome for the following compound: O=C(/C=C(/C=C/c1csc2ccccc12)OB(F)F)/C=C/c1csc2ccccc12
Response: yes (1)
